- Substrate: Nc1ncnc2c1ncn2[C@@H]1O[C@H](COP(=O)(O)OP(=O)(O)OP(=O)(O)O)[C@@H](O)[C@H]1O
- assay notes: purified protein
- Assay type: biochemical, Saccharolobus solfataricus
- measurement conditions: with ssDNA; labelled compound
endpoint name: Km
Your reply should be a number followed by the unit it is expressed in.

Example cases with answers are listed next.
get_value(item= SsoRadA (Sulfolobus solfataricus RadA) (Saccharolobus solfataricus P2) (protein, purified recombinant protein; homo-oligomeric nucleoprotein filament on ssDNA; F73, R72, R83 given) MSNEVEQKKNIKTINDLPGISQTVINKLIEAGYSSLETLAVASPQDLSVAAGIPLSTAQKIIKEARDALDIRFKTALEVKKERMNVKKISTGSQALDGLLAGGIETRTMTEFFGEFGSGKTQLCHQLSVNVQLPPEKGGLSGKAVYIDTEGTFRWERIENMAKALGLDIDNVMNNIYYIRAINTDHQIAIVDDLQELVSKDPSIKLIVVDSVTSHFRAEYPGRENLAVRQQKLNKHLHQLTRLAEVYDIAVIITNQVMARPDMFYGDPTVAVGGHTLYHVPGIRIQLKKSRGNRRIARVVDAPHLPEGEVVFALTEEGIRDAEE , readout=Km) returns 398 ± 52 µM

get_value(item= SsoRadA (Sulfolobus solfataricus RadA) (Saccharolobus solfataricus P2; R72G) (protein, purified recombinant protein; homo-oligomeric nucleoprotein filament on ssDNA; F73, R72, R83 given) MSNEVEQKKNIKTINDLPGISQTVINKLIEAGYSSLETLAVASPQDLSVAAGIPLSTAQKIIKEARDALDIGFKTALEVKKERMNVKKISTGSQALDGLLAGGIETRTMTEFFGEFGSGKTQLCHQLSVNVQLPPEKGGLSGKAVYIDTEGTFRWERIENMAKALGLDIDNVMNNIYYIRAINTDHQIAIVDDLQELVSKDPSIKLIVVDSVTSHFRAEYPGRENLAVRQQKLNKHLHQLTRLAEVYDIAVIITNQVMARPDMFYGDPTVAVGGHTLYHVPGIRIQLKKSRGNRRIARVVDAPHLPEGEVVFALTEEGIRDAEE , readout=Km) returns 176 ± 23 µM

get_value(item= SsoRadA (Sulfolobus solfataricus RadA) (Saccharolobus solfataricus P2; R72P) (protein, purified recombinant protein; homo-oligomeric nucleoprotein filament on ssDNA; F73, R72, R83 given) MSNEVEQKKNIKTINDLPGISQTVINKLIEAGYSSLETLAVASPQDLSVAAGIPLSTAQKIIKEARDALDIPFKTALEVKKERMNVKKISTGSQALDGLLAGGIETRTMTEFFGEFGSGKTQLCHQLSVNVQLPPEKGGLSGKAVYIDTEGTFRWERIENMAKALGLDIDNVMNNIYYIRAINTDHQIAIVDDLQELVSKDPSIKLIVVDSVTSHFRAEYPGRENLAVRQQKLNKHLHQLTRLAEVYDIAVIITNQVMARPDMFYGDPTVAVGGHTLYHVPGIRIQLKKSRGNRRIARVVDAPHLPEGEVVFALTEEGIRDAEE , readout=Km) returns 143 ± 10 µM

Now consider the entry below.
get_value(item= SsoRadA (Sulfolobus solfataricus RadA) (Saccharolobus solfataricus P2; R72A) (protein, purified recombinant protein; homo-oligomeric nucleoprotein filament on ssDNA; F73, R72, R83 given) MSNEVEQKKNIKTINDLPGISQTVINKLIEAGYSSLETLAVASPQDLSVAAGIPLSTAQKIIKEARDALDIAFKTALEVKKERMNVKKISTGSQALDGLLAGGIETRTMTEFFGEFGSGKTQLCHQLSVNVQLPPEKGGLSGKAVYIDTEGTFRWERIENMAKALGLDIDNVMNNIYYIRAINTDHQIAIVDDLQELVSKDPSIKLIVVDSVTSHFRAEYPGRENLAVRQQKLNKHLHQLTRLAEVYDIAVIITNQVMARPDMFYGDPTVAVGGHTLYHVPGIRIQLKKSRGNRRIARVVDAPHLPEGEVVFALTEEGIRDAEE , readout=Km) returns 37 ± 11 µM
